# Test Protocol: Stability of apelin analogs in rat plasma
# Assay type: in vitro ADME
# Condition Info: rat, plasma, pH 7.4
# Description: Stability of apelin analogs in rat plasma. […] Samples were quenched by acidifying to final concentration of 5% TFA. Samples were analyzed on HPLC. Peak heights were plotted as relative to the initial peak heights.
Numbered stars: 1 amine (or outer) side, 2 acyl side, 3 side chain; on linkers, the order of the positions; unused ones are H or OH. Bridge positions count the residues as written; N and C are the ends. Square brackets hold non-standard residues; d marks the D form. Peptide text beside a SMILES is read from it. ξ: configuration not given here. ξAbu(3ξ-yl) = CC(C(N[*:1])C(=O)[*:2])[*:3]; pGlu = O=C1CC[C@@H](C(=O)O)N1; ξC = NC(CS)C(=O)O

Molecule	Unit Spec	Sign	half-life at 0.1 mg/ml
CSCC[C@@H]1NC(=O)[C@@H]2CCCN2C(=O)CNC(=O)[C@H](CCCCN)NC(=O)[C@H](Cc2c[nH]cn2)NC(=O)C(NC(=O)[C@H](CC(C)C)NC(=O)[C@H](CCCNC(=N)N)NC(=O)[C@@H]2CCCN2C(=O)[C@H](CCCNC(=N)N)NC(=O)[C@@H]2CCC(=O)N2)CSC[C@@H](C(=O)N[C@@H](Cc2ccccc2)C(=O)O)NC1=O (stereo partly drawn) [pEApeM26S I, pERPRLLanHKGPMLanF]	h	>	24
CSCC[C@H](NC(=O)[C@@H]1CCCN1C(=O)[C@@H]1CSC(C)C(NC(=O)[C@H](CC(C)C)NC(=O)[C@H](CCCNC(=N)N)NC(=O)[C@@H]2CCCN2C(=O)[C@H](CCCNC(=N)N)NC(=O)[C@@H]2CCC(=O)N2)C(=O)N[C@@H](Cc2c[nH]cn2)C(=O)N[C@@H](CCCCN)C(=O)NCC(=O)N1)C(=O)N1CCC[C@H]1C(=O)N[C@@H](Cc1ccccc1)C(=O)O (stereo partly drawn) [pEApeM7, pERPRLmeLanHKGmeLanPMPF] ([pGlu]RPRL[ξAbu(3ξ-yl)]HKGCPMPF-OH; thioether 6-10)	h	=	15
CSCC[C@H](NC(=O)[C@@H]1CCCN1C(=O)C1CSC(C)C(NC(=O)[C@H](CC(C)C)NC(=O)[C@H](CCCNC(=N)N)NC(=O)[C@@H]2CCCN2C(=O)[C@H](CCCNC(=N)N)NC(=O)[C@@H]2CCC(=O)N2)C(=O)N[C@@H](Cc2c[nH]cn2)C(=O)N[C@@H](CCCCN)C(=O)N1)C(=O)N1CCC[C@H]1C(=O)N[C@@H](Cc1ccccc1)C(=O)O (stereo partly drawn) [pEApeM5, pERPRLmelanHKmelanPMPF] ([pGlu]RPRL[ξAbu(3ξ-yl)]HK[ξC]PMPF-OH; thioether 6-9; C-terminus assumed)	h	=	9
